Measured values drawn from ChEMBL document CHEMBL1157539 for this set.

tested on: HepG2; experiment: GSK_TCMDC: Percent inhibition of human HepG2 cell line. Test compounds present at 10uM.; assay type: functional
endpoint: Inhibition
Could you write the number and then its unit?

Reference set (4 entries):
1) Cl.N#Cc1ccc(-c2ccc(C(=O)Nc3ccc4c(c3)CCN(C3CCC3)CC4)nc2)cn1    24%
2) Cc1noc(C)c1-c1cccc(CNCc2cccc(-c3ccc(-c4nc5ccccc5[nH]4)cc3)c2)c1.O=C(O)C(F)(F)F    27%
3) Cn1c(NC(=O)CCCCCNC(=O)c2ccc(O)c(-c3ccc(Cl)c(Cl)c3)c2)nc2ccccc21    0%
4) COc1ccc2c(Nc3ccc(N4CCN(C)CC4)cc3)cc(C)nc2c1    23%

Next molecule, please.
Provide measured Inhibition on HepG2 for `N#Cc1cccc(NC(=O)Nc2ccc3c(c2)CN(Cc2c[nH]c4ncccc24)C3)c1` please.
0%

====

tested on: Plasmodium falciparum; assay: GSK_TCMDC: Inhibition of Plasmodium falciparum 3D7 in whole red blood cells, using parasite LDH activity as an index of growth. Test compounds present at 2uM; format: functional
endpoint: Inhibition (%)
Respond with the bare value in %.

1) CCCN(CCC)CCCOc1ccc(C(=O)c2c(-c3ccc(OCCCN(CCC)CCC)cc3)oc3ccc(Cl)cc23)cc1.Cl    96
2) CN1CCN(Cc2ccc(-c3cc4c(Nc5ccc(OCc6cccc(F)c6)c(Cl)c5)ncnc4s3)[nH]2)CC1    100
3) COc1ccc(S(=O)(=O)N(CCCN2CCN(C)CC2)Cc2csc(-c3ccc(CNCc4ccccc4)cc3)n2)cc1.O=C(O)C(F)(F)F    88

// Input: `CC(C)(C)c1ccc(N2C(N)=NC(N)=NC2(C)C)cc1.Cl` . Output its Inhibition only.
93

Identify measured Inhibition associated with `Cc1ccc(NC(=O)c2ccc(CN3CCCN(CC4CCCCC4)CC3)cc2)cc1.O=C(O)C(F)(F)F`
93

Give the value of Inhibition reported for the following: `CC(=O)c1ccc(-c2ccc(C(=O)NCCCCN3CCC(c4ccc5c(c4O)CCCC5)CC3)cc2)cc1`
100

Provide one value: measured Inhibition of `CS(=O)(=O)c1ccc(CCNCc2ccc(-c3ccc(CN(C(=O)C4CCCC4)C4CCN(Cc5ccccc5)CC4)cc3)nc2)cc1.O=C(O)C(F)(F)F`
91

Please list Inhibition recorded for the compound `Cc1ccc(Nc2nc(C)cc(NC3CCCC3)n2)cc1`
100

Using the record for `FC(F)(F)Oc1ccc(-c2cnc3ccc(NCc4ccncc4)nn23)cc1` , state its measured Inhibition.
97

Quick one: give measured Inhibition for `CC(C)(C)c1nn(-c2ccc(Cl)cc2)c2[nH]c(=O)c(CNC3CCCC3)cc12`
99

====

test system: HepG2; test: GSK_TCMDC: Percent inhibition of human HepG2 cell line. Test compounds present at 10uM.; type: functional
Is Inhibition at least 40%? Then YES. If not, NO.

Worked examples, 10 molecules total:
1. O=C(/C=C/c1ccc(Cl)c(Cl)c1)NCCCCCCN1CCCN(C(=O)Nc2ccc(F)c(Cl)c2)CC1    NO
2. CC1(C)[C@H]2CC[C@@H](CNc3nc(NCCc4c[nH]cn4)nc(Nc4ccc(Oc5ccccc5)cc4)n3)[C@@H]1C2    NO
3. Cc1nc(-c2ccc(-c3ccc(C(=O)Nc4ccc(C(C)C)c(OCCN(C)C)c4)cc3)c(C)c2)no1.O=C(O)C(=O)O    YES
4. CN(C)[C@@H]1C(O)=C(C(N)=O)C(=O)[C@@]2(O)C(O)=C3C(=O)c4c(O)ccc(C#Cc5ccccn5)c4C[C@H]3C[C@@H]12.Cl    NO
5. COc1ccc(CC(=O)NC(CCCN2CCC(c3ccccc3)CC2)c2ccc(Cl)c(Cl)c2)cc1OC (stereo not drawn)    NO
6. CCCCNc1ccc(C(=O)NC2CCN(C[C@H](O)c3ccnc4ccc(OC)cc34)CC2)cc1    NO
7. O=C(NCCc1ccc(Cl)c(Cl)c1)[C@@H]1CCCN1C(=O)c1ccc(O)c(-c2ccc(Cl)c(Cl)c2)c1    NO
8. C=CCOc1cc(Cc2cnc(N)nc2N)cc(OC)c1OC.Cl    NO
9. CCOC(=O)c1c(NC(=O)c2ccccc2)sc2c(O)c(CNC3CCCCC3)ccc12    NO
10. CCc1nc(N)nc(N)c1-c1ccc(F)c(F)c1    YES

Has `O=C(Nc1cccc(OC2CCN(Cc3ccccc3)CC2)c1)c1ccc([N+](=O)[O-])cc1.O=C(O)C(F)(F)F` a recorded Inhibition greater than or equal to 40%?
NO

Does the reported Inhibition for `Cc1[nH]c2c(NCc3ccc(F)cc3)nccc2c1C` fall at or above the 40% mark?
YES

Given `Cc1nc2nc(N)nc(N)c2c(C)c1Cc1ccc(O)cc1.Cl` , state whether its Inhibition is at least 40%.
YES

Would you say `CCOc1cc(C(C)C)ccc1C1CCN(CCCCNC(=O)c2ccc(NC(=O)c3ccc(Cl)cc3)cc2)CC1` shows Inhibition at minimum 40%?
NO

Is it the case that `Nc1nccc2ccc(-c3cccc(OCc4ccccc4)c3)cc12.O=C(O)C(F)(F)F` has Inhibition reaching or exceeding 40%?
YES

Entry `O=C(c1cc2c(s1)-c1cccc(Cl)c1SC2)N1CCN(c2ccncc2)CC1` : is its Inhibition no less than 40%?
YES

====

test system: Plasmodium falciparum; experiment: GSK_TCMDC: Inhibition of Plasmodium falciparum Dd2 in whole red blood cells, using parasite LDH activity as an index of growth. Test compounds present at 2uM; format: functional
Recorded Inhibition by entry
Kindly write the number and append the unit.

Study these solved cases before continuing.
1) COC(=O)CCCOc1cc(Cc2cnc(N)nc2N)cc(OC)c1OC    0%
2) Cl.NC1=NC(CCc2ccccc2)N(c2ccc(Cl)cc2)C(N)=N1 (stereo unspecified)    20%
3) C=CCn1c(SCC(=O)Nc2cc(C)ccc2OC)nc2sc(C)cc2c1=O    86%
4) CC(C)(Oc1c(C2CCN(CCCCNC(=O)c3ccc(-c4ccc(Cl)cc4)cc3)CC2)ccc2c1CCCC2)C(N)=O    5%
5) CCc1cc(Br)c2c(c1)C(NCCCNc1cc(=O)c3ccccc3[nH]1)CCN2 (stereo unspecified)    20%
6) Cc1ccc(NC(=O)Nc2ccc(Br)cc2)cc1OCCN(C)C    15%
7) CC(=O)Nc1ccc(C(=O)Nc2cccc(-c3ccc(-c4nc5cc(C(F)(F)F)ccc5[nH]4)s3)c2)cn1    98%
8) Cl.N=C1N=C(N)NCN1OCc1ccc(Cl)c(Cl)c1    4%
9) CN(C)c1ccc(-c2ccc(C(=O)NC3CCN(Cc4ccc(C(C)(C)C)cc4)CC3)s2)cc1.O=C(O)C(F)(F)F    59%
10) COc1ccc(CCN(C)CCOc2ccc(NC(=O)c3ccc([N+](=O)[O-])c4c(=O)c5ccccc5[nH]c34)cc2)cc1OC    25%

Print Plasmodium falciparum Inhibition for `N=C(N)NCCN(Cc1ccccc1)c1ccc(Cl)cc1` .
99%

Answer with Inhibition of Brc1cc(Br)c2c(c1)C(NCCCNc1nc3ncccc3[nH]1)CCN2.O=C(O)CCC(=O)O (stereo unspecified) measured for Plasmodium falciparum.
83%

Please indicate recorded Inhibition of COC(=O)Cn1c(C2CCN(CC3CCC(NC(=O)/C=C/c4ccc(Cl)c(Cl)c4)CC3)CC2)nc2ccccc21 (stereo unspecified) measured with Plasmodium falciparum.
17%

====

system: Plasmodium falciparum; assay: GSK_TCMDC: Inhibition of Plasmodium falciparum 3D7 in whole red blood cells, using parasite LDH activity as an index of growth. Test compounds present at 2uM; format: functional
endpoint: Inhibition (%)
The reply should be a number in %, with the unit left off.

Below: 5 compounds and their reported Inhibition.
1) COc1ccc(Nc2nccc(N3CCC(NC(=O)Nc4ccc5c(c4)OCO5)C3)n2)cc1 (stereo not drawn)    98
2) O=C(Nc1ccsc1)Nc1cccc(-c2cccc(-c3nc4cc(F)ccc4[nH]3)c2)c1    100
3) CC(O)C(=O)O.CCOc1ccc2nc3cc(N)ccc3c(N)c2c1    98
4) CCCN(c1ccc(C(F)(F)F)cc1[N+](=O)[O-])S(=O)(=O)C(c1ccccc1)c1ccc(C(F)(F)F)cc1[N+](=O)[O-] (stereo not drawn)    94
5) O=C(NCCNc1ccnc(NCc2ccc(F)cc2)n1)c1cc2ccccc2s1    99

Retrieve Inhibition measured for `O=C(O)C(F)(F)F.Oc1ccc(-c2nc3c(N4CCN(Cc5ccccc5)CC4)cccc3n2C2CCNCC2)cc1` and print it.
85

Dear colleague, please send me the reported Inhibition for `CC(C)(C)NCCN(Cc1ccc(-c2ccc(C(F)(F)F)cc2)cc1)C(=O)Cn1c(CCc2cccc(F)c2F)nc(=O)c2c1CCC2.O=C(O)C(O)C(O)C(=O)O` when you can.
95

Let me know recorded Inhibition for COc1cccc(Nc2c(C(N)=O)cnc3ccc(-c4ccc([S+](C)[O-])cc4)cc23)c1.O=C(O)C(F)(F)F (stereo not drawn) , thanks.
96
